Recorded IC50 values for a group of molecules are listed next.
Tested on: MCF7
Assay: Cytotoxicity against human MCF7 cells after 48 hrs by [3H]hypoxanthine incorporation assay
Format: functional, cell-based
Quick reminder: number only, in µM, skip the unit.

Study these solved cases before continuing.
Cn1c(=O)c2ccccc2c2nc3ccccc3cc21; 154
Cn1c(=O)c2ccccc2c2c3ccccc3ncc21; 30.9
Cn1c(=O)c2ccccc2c2ccc3cnccc3c21; 11.9
Cn1c(=O)c2ccccc2c2ccc3cccnc3c21; 16.5
Cn1c(=O)c2ccccc2c2cc3ncccc3cc21; 0.6

## Task Fill: IC50 (MCF7) for this molecule Cn1c(=O)c2ccccc2c2c3cccnc3ccc21
## Result 11.5

## Task Fill: IC50 (MCF7) for this molecule Cn1c(=O)c2ccccc2c2ccc3ncccc3c21
## Result 12.5

## Task Fill: IC50 (MCF7) for this molecule COc1cccc2c1C(=O)c1c(O)c3c(c(O)c1C2=O)C[C@@](O)(C(=O)CO)C[C@@H]3O[C@H]1C[C@H](N)[C@H](O)[C@H](C)O1 [DOXORUBICIN]
## Result 0.41
